For each of the molecules below, state its pIC50.
- TARGET_ENTITY: UniProtKB Q96SW2
- Sequence (Q96SW2 whole entry): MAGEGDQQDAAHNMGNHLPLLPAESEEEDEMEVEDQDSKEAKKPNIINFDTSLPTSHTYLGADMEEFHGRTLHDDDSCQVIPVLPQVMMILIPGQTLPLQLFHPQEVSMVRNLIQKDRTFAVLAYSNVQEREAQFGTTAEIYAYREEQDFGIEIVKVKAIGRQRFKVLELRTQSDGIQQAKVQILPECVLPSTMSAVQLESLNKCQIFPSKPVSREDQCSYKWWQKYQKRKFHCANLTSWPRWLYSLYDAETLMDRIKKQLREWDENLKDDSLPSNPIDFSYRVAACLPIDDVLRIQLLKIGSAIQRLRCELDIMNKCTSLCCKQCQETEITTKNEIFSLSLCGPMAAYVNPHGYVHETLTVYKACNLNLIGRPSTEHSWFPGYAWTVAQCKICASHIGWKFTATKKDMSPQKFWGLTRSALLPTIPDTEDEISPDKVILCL
- MEASUREMENT_DESCRIPTION: Fluorescence polarization (FP) assay, cereblon binding
- CONDITIONS_USED: wild-type CRBN 80.0 nM, probe 5 nM, FP measured after 12 hours, read-out: rFP IC50
pIC50: −log10 of the molar value.

Q: Which measured pIC50 value corresponds to CC1CCCCN1c1ccc(NC(=O)OCc2cc(F)c3c(c2)C(=O)N(C2CCC(=O)NC2=O)C3)cn1 (stereo not drawn) ?
Ans: 5.92 to 6.22

Q: Record request: pIC50 value, item COc1cc(COC(=O)Nc2cc(C)cc(C)c2)cc2c1CN(C1CCC(=O)NC1=O)C2=O (stereo not drawn)
Ans: ≥ 6.22

Q: Dear colleague, I am looking for the recorded pIC50 of the following molecule: COc1cc(COC(=O)Nc2cccc(C(C)(C)C)c2)cc2c1CN(C1CCC(=O)NC1=O)C2=O (stereo not drawn)
Ans: ≥ 6.22

Q: Given Cc1ccc(NC(=O)OCc2ccc3c(c2F)C(=O)N(C2CCC(=O)NC2=O)C3)cc1Cl (stereo not drawn) , state its recorded pIC50.
Ans: < 5.72

Q: Quick one: pIC50 of COc1cc(COC(=O)Nc2cc(-c3ccccc3)ccn2)cc2c1CN(C1CCC(=O)NC1=O)C2=O (stereo not drawn) ?
Ans: ≥ 6.22

Q: Sample O=C1CCC(N2Cc3c(F)cc(COC(=O)Nc4cc(Cl)cc(Cl)c4)cc3C2=O)C(=O)N1 (stereo not drawn) — what was its pIC50?
Ans: < 5.72

Q: GET /values?readout=pIC50&item= COc1cc(COC(=O)Nc2ccc(-c3ccccc3F)nc2)cc2c1CN(C1CCC(=O)NC1=O)C2=O (stereo not drawn)
Ans: 5.72 to 5.92

Q: // returns reported pIC50 for input Cc1ccccc1-c1ccc(NC(=O)OCc2cc(F)c3c(c2)C(=O)N(C2CCC(=O)NC2=O)C3)cn1 (stereo not drawn)
Ans: ≥ 6.22

Q: GET /values?readout=pIC50&item= Cc1ccc(NC(=O)OCc2cc(F)c3c(c2)C(=O)N(C2CCC(=O)NC2=O)C3)cc1OC(F)F (stereo not drawn)
Ans: < 5.72

Q: Give the measured pIC50 of COc1cc(COC(=O)Nc2ccc(-c3ccccc3C)nc2)cc2c1CN(C1CCC(=O)NC1=O)C2=O (stereo not drawn) .
Ans: ≥ 6.22

Q: Reported pIC50 for CC(C)(C)c1cccc(NC(=O)OCc2cc(F)c3c(c2)C(=O)N(C2CCC(=O)NC2=O)C3)c1 (stereo not drawn) : what is it?
Ans: < 5.72

Q: Find the recorded pIC50 belonging to O=C1CCC(N2Cc3c(F)cc(COC(=O)Nc4cccc(OC(F)F)c4)cc3C2=O)C(=O)N1 (stereo not drawn) and report it.
Ans: 5.72 to 5.92

Q: # query: pIC50 of entry O=C1CCC(N2Cc3c(F)cc(COC(=O)Nc4ccc(-c5ccccc5)nc4)cc3C2=O)C(=O)N1 (stereo not drawn)
Ans: < 5.72

Q: Fill in: pIC50 of Cc1ccc(NC(=O)OCc2cc(F)c3c(c2)C(=O)N(C2CCC(=O)NC2=O)C3)cc1Cl (stereo not drawn) is ___
Ans: < 5.72

Q: # lookup: pIC50 of Cc1cc(C)cc(NC(=O)OCc2cc(F)c3c(c2)C(=O)N(C2CCC(=O)NC2=O)C3)c1 (stereo not drawn)
Ans: < 5.72
